measured target: full-length recombinant human Btk protein (Homo sapiens)
Construct: The full-length recombinant human Btk protein; purchased Invitrogen (Carlsbad, Calif.) Lot #619547Q (catalogue number not given)
Sequence (Q06187 whole entry): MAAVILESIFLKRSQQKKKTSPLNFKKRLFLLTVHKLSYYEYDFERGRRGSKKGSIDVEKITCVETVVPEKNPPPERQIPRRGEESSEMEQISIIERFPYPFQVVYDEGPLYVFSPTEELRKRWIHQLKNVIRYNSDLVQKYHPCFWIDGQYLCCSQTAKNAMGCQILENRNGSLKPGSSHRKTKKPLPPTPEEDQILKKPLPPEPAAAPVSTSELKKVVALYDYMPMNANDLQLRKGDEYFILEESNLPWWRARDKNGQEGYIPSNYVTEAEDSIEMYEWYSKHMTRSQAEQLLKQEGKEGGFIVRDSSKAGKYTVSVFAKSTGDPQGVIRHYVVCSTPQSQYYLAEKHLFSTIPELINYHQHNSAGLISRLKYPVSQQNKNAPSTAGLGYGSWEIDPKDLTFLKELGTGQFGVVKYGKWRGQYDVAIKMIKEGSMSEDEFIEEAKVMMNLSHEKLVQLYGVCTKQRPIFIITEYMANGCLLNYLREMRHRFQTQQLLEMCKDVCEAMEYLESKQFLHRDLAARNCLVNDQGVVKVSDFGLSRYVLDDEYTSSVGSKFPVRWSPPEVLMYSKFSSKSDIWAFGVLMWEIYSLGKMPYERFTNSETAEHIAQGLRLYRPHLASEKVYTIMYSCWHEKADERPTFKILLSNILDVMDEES
method summary: Covalent bonding assay, intact protein MALDI mass spectrometry
Format: binding
test conditions: 60 minutes incubation, 10-fold excess of compound to protein, room temperature
recorded endpoint: MS % modification

Examples with answers:
I would be grateful if you could share the reported MS % modification for COCCOc1ccc(Nc2ncc(F)c(Nc3cccc(NC(=O)C(O)CO)c3)n2)cc1 (stereo not drawn) [Compound I-4] .
C (<30% modification)

Check O=C(Nc1cccc(Nc2nc(Nc3ccc(OCCO)cc3)ncc2F)c1)C(O)CO (stereo not drawn) [Compound I-5] too.
C (<30% modification)

What do we get for C=CC(=O)Nc1cccc(Nc2nc(Nc3ccc(O)cc3)ncc2F)c1 [Compound I-3] ?
A (>70% modification)

Item: COCCOc1ccc(Nc2ncc(F)c(Nc3cccc(NC(=O)C4CO4)c3)n2)cc1 (stereo not drawn) [Compound I-19]
A (>70% modification)

Please examine the following record next.
Which value of MS % modification has been reported for O=C(Nc1cccc(Nc2nc(Nc3ccc(O)cc3)ncc2F)c1)C(O)CO (stereo not drawn) [Compound I-6] in the records?
C (<30% modification)
